- method.description: Pharmacokinetics of BTB in drainage fluid and portal venous blood after abdominal application of PAN indicator hydrogel (HPLC-MS)
- Assay type: in vivo, domestic pigs (Sus Scrofa Domestica)
- condition.context: pig, portal venous blood, other: abdominal application at the pancreatic surgery field, pig portal venous blood, Min 0 (baseline before indicator application), individual animals Tox 1-4; read-out: Portal Venous Blood BTB-Concentration
quantity.kind: concentration at 0 min
Show the value, then the unit it is measured in.

Record Cc1c(C2(c3cc(C(C)C)c(O)c(Br)c3C)OS(=O)(=O)c3ccccc32)cc(C(C)C)c(O)c1Br . Reported concentration at 0 min: 0 ng/mL

---

- method.description: Pharmacokinetics of BTB in drainage fluid and portal venous blood after abdominal application of PAN indicator hydrogel (HPLC-MS)
- Type: in vivo, domestic pigs (Sus Scrofa Domestica)
- condition.context: pig, portal venous blood, other: abdominal application at the pancreatic surgery field, pig portal venous blood, Min 5, mean of animals; read-out: Portal Venous Blood BTB-Concentration, Mean
quantity.kind: concentration at 5 min (ng/mL)
Express your answer in ng/mL, writing the number without its unit.

Form field concentration at 5 min, entry Cc1c(C2(c3cc(C(C)C)c(O)c(Br)c3C)OS(=O)(=O)c3ccccc32)cc(C(C)C)c(O)c1Br [BTB, bromothymol blue] : 0.51
